Test system: Vero E6 cells
EXPERIMENTAL CONTEXT: cytotoxicity counter-assay, Vero E6 cells without virus
Structures can show the parent of a compound that is named as a salt.
# % Cytotox per entry
PROPERTY MEASURED: % Cytotox (%)

- O=C(/C=C/c1ccc(Cl)cc1)N1CCC2(CC1)CN(Cc1ccc(Cl)c(Cl)c1)C(=O)O2 [GSK-682753A]: 38.6
- C/C(=N\NC(=O)c1cccc(S(=O)(=O)N2CCOCC2)c1)c1cc(Cl)ccc1O [SP2509]: 67.4
- O=C(c1ccc(Nc2nccc(-c3cc4ccccc4s3)n2)cc1)N1CCC(N2CCCC2)CC1 [IKK-16]: 107.2
- CN1CCN(C(=O)c2ccc(Nc3nccc(-c4cccs4)n3)cc2Cl)CC1: 55.6
- c1ccc(-c2ccc(CNc3nc(-c4ccccn4)nnc3-c3ccccc3)cc2)cc1 [ML-228]: 74.8
- C(=N\Nc1nc(Nc2ccccc2)nc(N2CCOCC2)n1)/c1c[nH]c2ccccc12 [MLS000543798]: 33.6
- COc1cc2c3cc1Oc1c(OC)c(OC)cc4c1[C@@H](Cc1ccc(O)c(c1)Oc1ccc(cc1)C[C@@H]3N(C)CC2)N(C)CC4 [Berbamine dihydrochloride]: 50.1
- CC(C)(C)c1ccc(C(=O)Nc2cc(Cl)c(Br)cc2C(=O)O)cc1 [NCGC00386831]: 78.8

# credit: paper PMC7942396
